- experimentSummary: Solution stability of 2-cyano-pyrrolidines
- Format: physicochemical
- assayContext: pH 7.2
quantityName: half-life (h)
Dear colleague, please return just the value in h, with no unit written.

-- ask What value of half-life has been recorded for this entry: CC[C@H](C)[C@H](N)C(=O)N1CCC[C@H]1C#N [Ref. Std 1, iso-Leucine-cyanopyrrolide]
-- reply 5
